Examples of molecules with documented log10 of MIC follow.
test system: Candida parapsilosis; experiment: Antimicrobial activity against Candida parapsilosis isolates; settings: Lodderomyces parapsilosis
Give log10 of MIC, with MIC taken in µg/mL.

Study these solved cases before continuing.
1. CCN(CC)Cc1ccc(C(=O)Nc2ccc(-c3ccc(OCC(O)(Cn4cncn4)c4ccc(F)cc4F)cc3)cn2)cc1 (centres undefined) = -0.60
2. COc1ccc(C(=O)Nc2ccc(-c3ccc(OCC(O)(Cn4cncn4)c4ccc(F)cc4F)cc3)cn2)cc1 (centres undefined) = -0.60
3. CC(=O)N1CCN(c2ccc(OCC3COC(Cn4ccnc4)(c4ccc(Cl)cc4Cl)O3)cc2)CC1 (centres undefined) = -1.20

## Input Need log10 of MIC, item C[C@@H](c1ncncc1F)[C@](O)(Cn1cncn1)c1ccc(F)cc1F
## Output -1.20

## Input Param item: O=C(Nc1ccc(-c2ccc(OCC(O)(Cn3cncn3)c3ccc(F)cc3F)cc2)cn1)c1ccc(CN2CCCCC2)cc1 (centres undefined)
## Output -1.20

## Input Then what about the molecule O=C(O)c1ccc(NCc2ccc(-c3ccc(OCC(O)(Cn4cncn4)c4ccc(F)cc4F)cc3)cc2)cc1 (centres undefined) ?
## Output -1.20

## Input Also CCCCCCCNc1ccc(-c2ccc(OCC(O)(Cn3cncn3)c3ccc(F)cc3F)cc2)cn1 (centres undefined) ?
## Output 0.00

## Input Now give it for O=C(CCl)Nc1ccc(-c2ccc(OCC(O)(Cn3cncn3)c3ccc(F)cc3F)cc2)cn1 (centres undefined) too.
## Output -0.60

## Input // same read-out, input: CN(C/C=C/C#CC(C)(C)C)Cc1cccc2ccccc12
## Output -0.60

## Input Then this molecule: OC(COc1ccc(-c2ccc(NCc3cccc(Cl)c3)nc2)cc1)(Cn1cncn1)c1ccc(F)cc1F (centres undefined)
## Output -0.60

## Input Can you check O=C(CN1CCNCC1)Nc1ccc(-c2ccc(OCC(O)(Cn3cncn3)c3ccc(F)cc3F)cc2)cn1 (centres undefined) next?
## Output 0.60

## Input CCC(C)n1ncn(-c2ccc(N3CCN(c4ccc(OC[C@H]5CO[C@](Cn6cncn6)(c6ccc(Cl)cc6Cl)O5)cc4)CC3)cc2)c1=O (some centres undefined) ?
## Output -1.51

## Input Same question for O=C(CN1CCCCC1)Nc1ccc(-c2ccc(OCC(O)(Cn3cncn3)c3ccc(F)cc3F)cc2)cn1 (centres undefined) please.
## Output -1.20

## Input And then Oc1ccc(CNc2ccc(-c3ccc(OCC(O)(Cn4cncn4)c4ccc(F)cc4F)cc3)cn2)cc1 (centres undefined) , what is it?
## Output -1.20

## Input // same read-out, input: CN(Cc1ccc(-c2ccc(OCC(O)(Cn3cncn3)c3ccc(F)cc3F)cc2)cc1)c1ccccc1 (centres undefined)
## Output 0.00

## Input How about Oc1ccccc1CNc1ccc(-c2ccc(OCC(O)(Cn3cncn3)c3ccc(F)cc3F)cc2)cn1 (centres undefined) ?
## Output -1.20

## Input Same lookup for Cc1cccc(C(=O)Nc2ccc(-c3ccc(OCC(O)(Cn4cncn4)c4ccc(F)cc4F)cc3)cn2)c1 (centres undefined) , please.
## Output -0.60

## Input Here is the next molecule: CNCC(=O)Nc1ccc(-c2ccc(OCC(O)(Cn3cncn3)c3ccc(F)cc3F)cc2)cn1 (centres undefined)
## Output -0.60

## Input Now this one: CCNc1ccc(-c2ccc(OCC(O)(Cn3cncn3)c3ccc(F)cc3F)cc2)cn1 (centres undefined)
## Output -1.20

## Input Now the same for CN(C)Cc1ccc(-c2ccc(OCC(O)(Cn3cncn3)c3ccc(F)cc3F)cc2)cc1 (centres undefined)
## Output -0.60

## Input Here is the next molecule: CNCc1ccc(-c2ccc(OCC(O)(Cn3cncn3)c3ccc(F)cc3F)cc2)cc1 (centres undefined)
## Output -0.60

## Input Now the molecule O=C(Nc1ccc(-c2ccc(OCC(O)(Cn3cncn3)c3ccc(F)cc3F)cc2)cn1)c1ccc(CCl)cc1 (centres undefined)
## Output -1.20

## Input Quick one: CC(C)NCc1ccc(-c2ccc(OCC(O)(Cn3cncn3)c3ccc(F)cc3F)cc2)cc1 (centres undefined)
## Output -1.20

## Input Likewise for OCCNCc1ccc(-c2ccc(OCC(O)(Cn3cncn3)c3ccc(F)cc3F)cc2)cc1 (centres undefined) ?
## Output 0.00

## Input Record: Nc1ccc(-c2ccc(OCC(O)(Cn3cncn3)c3ccc(F)cc3F)cc2)cn1 (centres undefined)
## Output -0.60

## Input Same read-out for OCc1ccc(-c2ccc(OCC(O)(Cn3cncn3)c3ccc(F)cc3F)cc2)cc1 (centres undefined) ?
## Output -1.20
